A short record of AC50 observed with Cytochrome P450 1A2 (Homo sapiens, UniProt P05177) follows.
Sequence (P05177 whole entry): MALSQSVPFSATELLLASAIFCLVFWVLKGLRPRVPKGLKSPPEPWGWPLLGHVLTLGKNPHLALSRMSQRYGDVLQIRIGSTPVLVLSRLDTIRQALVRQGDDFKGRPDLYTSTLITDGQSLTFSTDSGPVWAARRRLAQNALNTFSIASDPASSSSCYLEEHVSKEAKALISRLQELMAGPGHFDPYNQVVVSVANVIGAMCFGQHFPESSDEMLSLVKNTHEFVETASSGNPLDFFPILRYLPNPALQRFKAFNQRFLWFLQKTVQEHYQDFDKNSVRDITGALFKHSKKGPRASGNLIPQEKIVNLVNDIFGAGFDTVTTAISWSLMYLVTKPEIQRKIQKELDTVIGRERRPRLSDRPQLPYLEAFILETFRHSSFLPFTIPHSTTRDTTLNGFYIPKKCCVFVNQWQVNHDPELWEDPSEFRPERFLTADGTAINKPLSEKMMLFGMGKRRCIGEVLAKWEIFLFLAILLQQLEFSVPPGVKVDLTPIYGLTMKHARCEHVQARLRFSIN

Known results for compounds:
compound	AC50
CCc1nnc2sc(-c3ccc(NC(=O)c4ccco4)cc3)nn12	14.1 µM (inconclusive)
O=C(N/C(=C/c1cccs1)c1nc2ccccc2[nH]1)c1ccccc1	25.1 µM (inconclusive)
COC(=O)[C@@]1(Cc2ccccc2)[C@H]2c3cc(C(=O)N4CCCC4)n(Cc4ccc(O)c(OC)c4)c3C[C@H]2CN1C(=O)c1ccccc1	25.1 µM (inconclusive)
CCCCCCCC(=O)O[C@H](CC(=O)O)C[N+](C)(C)C [OCTANOYLCARNITINE]	31.6 µM (inconclusive)
COc1cccc(Cn2c(=O)cnc3cnc(N4CCN(C)CC4)nc32)c1	25.1 µM (inconclusive)

What value of AC50 has been reported for the following compound? Cc1cc2nc(C3CCCN(C(=O)NCc4ccccc4)C3)[nH]c2cc1C (configuration not stated)
25.1 µM (inconclusive)

What value of AC50 has been reported for the following compound? COC(=O)[C@@]1(Cc2ccc(F)cc2)[C@H]2c3cc(C(=O)N(C)C)n(Cc4ccc(O)c(OC)c4)c3C[C@H]2CN1C(=O)c1ccccc1
25.1 µM (inconclusive)
